Assay: Terminal plasma and brain concentrations in AC-MES studies (UHPLC-MS/MS)
Type: in vivo, mouse
Details: male, CF-1, mouse, in vivo, po, 10 mg/kg, Study 2A, Compound A 10 mg/kg PO, 0.5 h; read-out: Mean Plasma
measurement-label: concentration at 0.5 h (µM)
Give the value, in units of µM, as a plain number.

Quick one: give measured concentration at 0.5 h for Cc1cc(N2CCc3cc(F)ccc3C2)cc(C)c1NC(=O)CC(C)(C)C
0.366

----------
Assay: Plasma and brain concentrations after MES testing (UHPLC-ESI-MS/MS)
Conditions: CF-1, mouse, in vivo, po, 2 mg/kg, Concentration Plasma, Compound A 2 mg/kg PO single dose, tissue collection 0.5 hr
measurement-label: concentration at 0.5 h (nM)
Give the value, in units of nM, as a plain number.

Quick one: give measured concentration at 0.5 h for Cc1cc(N2CCc3cc(F)ccc3C2)cc(C)c1NC(=O)CC(C)(C)C
220

----------
Assay: Plasma and brain concentrations in 6 Hz studies (LC-MS/MS)
Format: in vivo, mouse
Details: mouse, plasma, intraperitoneal, Studies 3B+3C combined, analyte Levetiracetam; 300 mg/kg IP + Compound A 4 mg/kg PO; read-out: Plasma
Experimental: Sample Collection and Preparation: Mice were anesthetized by isoflurane inhalation (TECH-018) until they reached a surgical plane of anesthesia. Then a syringe (1 mL syringe with a 22 gauge needle) was inserted under the sternum into the heart (TECH-031). Approximately 0.5 mL of blood was collected, deposited into a K2EDTA tube, and stored on ice. Animals were then euthanized by cervical dislocation (TECH-018). […] Samples were analyzed by a research-grade LC-MS/MS method as follows: […]
measurement-label: concentration at 1 h (µM)
Give the value, in units of µM, as a plain number.

Quick one: give measured concentration at 1 h for CC[C@@H](C(N)=O)N1CCCC1=O [Levetiracetam, reference compound]
1730

----------
Test: Terminal plasma and brain concentrations in AC-MES studies (UHPLC-MS/MS)
Format: in vivo, mouse
Settings: male, CF-1, mouse, in vivo, po, 7.5 mg/kg, Study 2B, Compound A 7.5 mg/kg PO, 0.5 h; read-out: Mean Plasma
measurement-label: concentration at 0.5 h (nM)
Give the value, in units of nM, as a plain number.

Quick one: give measured concentration at 0.5 h for Cc1cc(N2CCc3cc(F)ccc3C2)cc(C)c1NC(=O)CC(C)(C)C
530

----------
Test: Plasma and brain concentrations after MES testing (UHPLC-ESI-MS/MS)
Settings: CF-1, mouse, in vivo, po, 2 mg/kg, Concentration Plasma, Compound A 2 mg/kg PO single dose, tissue collection 2 hr
measurement-label: concentration at 2 h (nM)
Give the value, in units of nM, as a plain number.

Quick one: give measured concentration at 2 h for Cc1cc(N2CCc3cc(F)ccc3C2)cc(C)c1NC(=O)CC(C)(C)C [Compound A]
130

----------
Assay: Plasma and brain concentrations in 6 Hz studies (LC-MS/MS)
Format: in vivo, mouse
Settings: CF-1, mouse, plasma, po, 4 mg/kg, Study 3C, Compound A 4 mg/kg PO 1 h alone; read-out: Plasma
measurement-label: concentration at 1 h (nM)
Give the value, in units of nM, as a plain number.

Quick one: give measured concentration at 1 h for Cc1cc(N2CCc3cc(F)ccc3C2)cc(C)c1NC(=O)CC(C)(C)C
167

----------
Assay: Plasma and brain concentrations in 6 Hz studies (LC-MS/MS)
Format: in vivo, mouse
Conditions: mouse, plasma, intraperitoneal, Study 3C, analyte Levetiracetam; 300 mg/kg IP + Compound A 4 mg/kg PO; read-out: Plasma
measurement-label: concentration at 1 h (µM)
Give the value, in units of µM, as a plain number.

Quick one: give measured concentration at 1 h for CC[C@@H](C(N)=O)N1CCCC1=O [Levetiracetam, reference compound]
2160

----------
Assay: Terminal plasma and brain concentrations in AC-MES studies (UHPLC-MS/MS)
Type: in vivo, mouse
Details: CF-1, mouse, in vivo, Study 4F, analyte Compound A; 2 mg/kg in combination with Cenobamate 5 mg/kg; read-out: mean plasma concentration
measurement-label: concentration at 0.5 h (nM)
Give the value, in units of nM, as a plain number.

Quick one: give measured concentration at 0.5 h for Cc1cc(N2CCc3cc(F)ccc3C2)cc(C)c1NC(=O)CC(C)(C)C [Compound A]
290

----------
Assay: Terminal plasma and brain concentrations in AC-MES studies (UHPLC-MS/MS)
Format: in vivo, mouse
Conditions: male, CF-1, mouse, in vivo, po, 7.5 mg/kg, Study 2B, Compound A 7.5 mg/kg PO, 0.5 h; read-out: B/P Ratio
measurement-label: Kp at 0.5 h
Write no unit; give the number alone.

Quick one: give measured Kp at 0.5 h for Cc1cc(N2CCc3cc(F)ccc3C2)cc(C)c1NC(=O)CC(C)(C)C [Compound A]
1.64

----------
Assay: Terminal plasma and brain concentrations in AC-MES studies (UHPLC-MS/MS)
Format: in vivo, mouse
Conditions: male, CF-1, mouse, in vivo, po, 7.5 mg/kg, Study 4B; Compound A 7.5 mg/kg single oral dose; CF-1 mice; read-out: Mean Brain
measurement-label: concentration at 30 min (nM)
Give the value, in units of nM, as a plain number.

Quick one: give measured concentration at 30 min for Cc1cc(N2CCc3cc(F)ccc3C2)cc(C)c1NC(=O)CC(C)(C)C [Compound A]
870

----------
Experiment: Plasma and brain concentrations after MES testing (UHPLC-ESI-MS/MS)
Conditions: CF-1, mouse, in vivo, po, 4 mg/kg, Concentration Plasma, Compound A 4 mg/kg PO single dose, tissue collection 0.5 hr
measurement-label: concentration at 0.5 h

Quick one: give measured concentration at 0.5 h for Cc1cc(N2CCc3cc(F)ccc3C2)cc(C)c1NC(=O)CC(C)(C)C
420 nM

----------
Experiment: Terminal plasma and brain concentrations in AC-MES studies (UHPLC-MS/MS)
Type: in vivo, mouse
Details: male, CF-1, mouse, in vivo, 5 mg/kg, Study 4A; Compound A 5 mg/kg single oral dose, 30 min pre-treatment; CF-1 mice; read-out: Brain
measurement-label: concentration at 30 min (nM)
Give the value, in units of nM, as a plain number.

Quick one: give measured concentration at 30 min for Cc1cc(N2CCc3cc(F)ccc3C2)cc(C)c1NC(=O)CC(C)(C)C
400

----------
Assay: Plasma and brain concentrations after MES testing (UHPLC-ESI-MS/MS)
Conditions: CF-1, mouse, in vivo, po, 4 mg/kg, Concentration Plasma, Compound A 4 mg/kg PO, 0.5 hr
measurement-label: concentration at 0.5 h (ng/mL)
Give the value, in units of ng/mL, as a plain number.

Quick one: give measured concentration at 0.5 h for Cc1cc(N2CCc3cc(F)ccc3C2)cc(C)c1NC(=O)CC(C)(C)C [Compound A]
154

----------
Test: Terminal plasma and brain concentrations in AC-MES studies (UHPLC-MS/MS)
Type: in vivo, mouse
Details: CF-1, mouse, in vivo, 2 mg/kg, Study 4F; Compound A 2 mg/kg PO alone, 0.5 h pre-treatment; CF-1 mice; read-out: Mean Plasma
measurement-label: concentration at 0.5 h (nM)
Give the value, in units of nM, as a plain number.

Quick one: give measured concentration at 0.5 h for Cc1cc(N2CCc3cc(F)ccc3C2)cc(C)c1NC(=O)CC(C)(C)C
110

----------
Experiment: Terminal plasma and brain concentrations in AC-MES studies (UHPLC-MS/MS)
Assay type: in vivo, mouse
Conditions: male, CF-1, mouse, in vivo, po, 1 mg/kg, Study 2A, Compound A 1 mg/kg PO, 0.5 h; read-out: Mean Plasma
measurement-label: concentration at 0.5 h (µM)
Give the value, in units of µM, as a plain number.

Quick one: give measured concentration at 0.5 h for Cc1cc(N2CCc3cc(F)ccc3C2)cc(C)c1NC(=O)CC(C)(C)C
0.0815

----------
Test: Plasma and brain concentrations after MES testing (UHPLC-ESI-MS/MS);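 also: brain and plasma were sampled from mice right after the efficacy test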
Details: CF-1, mouse, in vivo, po, 2 mg/kg, Concentration Plasma, Compound A 2 mg/kg PO, 2 hr
measurement-label: concentration at 2 h (ng/mL)
Give the value, in units of ng/mL, as a plain number.

Quick one: give measured concentration at 2 h for Cc1cc(N2CCc3cc(F)ccc3C2)cc(C)c1NC(=O)CC(C)(C)C
46.7

----------
Assay: Terminal plasma and brain concentrations in AC-MES studies (UHPLC-MS/MS)
Assay type: in vivo, mouse
Conditions: CF-1, mouse, in vivo, po, 7.5 mg/kg, Study 4E; Cenobamate 7.5 mg/kg single oral dose; read-out: B/P Ratio (brain to plasma ratio)
measurement-label: Kp at 2 h
Write no unit; give the number alone.

Quick one: give measured Kp at 2 h for NC(=O)O[C@@H](Cn1ncnn1)c1ccccc1Cl [Cenobamate, reference compound]
0.44

----------
Assay: Plasma and brain concentrations in 6 Hz studies (LC-MS/MS)
Format: in vivo, mouse
Details: mouse, brain, intraperitoneal, Study 3B, analyte Levetiracetam; 300 mg/kg IP + Compound A 4 mg/kg PO; read-out: Brain
measurement-label: concentration at 1 h
Please don't drop the unit; write it after the number.

Quick one: give measured concentration at 1 h for CC[C@@H](C(N)=O)N1CCCC1=O [Levetiracetam, reference compound]
1010 µM

Data origin, for the record: patent US20220288057A1
